# systemUnderTest: Tyrosine-protein kinase SYK (Homo sapiens, UniProt P43405)
pIC50: −log10 of the molar value.
measuredMetric: pIC50

Ask | Can you look up the measured pIC50 of COc1cc(-c2nn([C@H]3CC[C@H](N4CCN(C(C)=O)CC4)CC3)c3ncnc(N)c23)ccc1NC(=O)c1cc2ccccc2n1C for me?
Reply | < 4.60

###

# test: Tmax in rat
# Assay type: ADME, organism-based
# testParameters: in vivo
measuredMetric: Tmax
Answer shape: numeric part, then the unit.

Ask | Can you look up the measured Tmax of COc1cc(-c2nn([C@H]3CC[C@H](N4CCN(C(C)=O)CC4)CC3)c3ncnc(N)c23)ccc1NC(=O)c1cc2ccccc2n1C for me?
Reply | 4.7 h

###

# systemUnderTest: UniProt P06241
# Sequence (P06241 whole entry): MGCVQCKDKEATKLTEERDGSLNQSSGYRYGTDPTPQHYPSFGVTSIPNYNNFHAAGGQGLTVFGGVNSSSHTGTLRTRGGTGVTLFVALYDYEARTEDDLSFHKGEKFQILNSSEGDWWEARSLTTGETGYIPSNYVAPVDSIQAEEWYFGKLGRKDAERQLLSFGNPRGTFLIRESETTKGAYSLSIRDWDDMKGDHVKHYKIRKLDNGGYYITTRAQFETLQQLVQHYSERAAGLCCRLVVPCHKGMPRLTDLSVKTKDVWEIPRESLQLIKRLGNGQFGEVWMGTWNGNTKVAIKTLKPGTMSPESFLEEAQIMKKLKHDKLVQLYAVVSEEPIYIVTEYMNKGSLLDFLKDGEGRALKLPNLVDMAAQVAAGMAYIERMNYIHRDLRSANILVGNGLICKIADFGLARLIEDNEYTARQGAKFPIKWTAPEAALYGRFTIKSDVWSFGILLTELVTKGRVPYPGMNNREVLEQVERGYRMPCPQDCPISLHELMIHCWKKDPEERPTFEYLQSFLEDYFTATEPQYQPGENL
pIC50: −log10 of the molar value.
The entries below are paired with their reported pIC50.

Take a look at these entries with their results.
{"molSmiles": "COc1cc(-c2nn(C3CCN(C4CCN(C(C)=O)CC4)CC3)c3ncnc(N)c23)ccc1NC(=O)c1cc2ccccc2n1C", "testResult": "≤ 4.30"}
{"molSmiles": "COc1cc(-c2nn(C3CCN(Cc4ccccc4)CC3)c3ncnc(N)c23)ccc1NC(=O)c1ccc(C(F)(F)F)cc1F", "testResult": "< 4.30"}
{"molSmiles": "COc1cc(-c2nn(C3CCN(C4CCOCC4)CC3)c3ncnc(N)c23)ccc1NC(=O)c1cc2ccccc2n1C", "testResult": "< 4.30"}
{"molSmiles": "COc1cc(-c2nn(C3CCN(C4CCOCC4)CC3)c3ncnc(N)c23)ccc1NC(=O)c1cc2cc(C#N)ccc2n1C", "testResult": 4.49}
{"molSmiles": "COc1cc(-c2nn(C3CCN(C)CC3)c3ncnc(N)c23)ccc1NC(=O)c1ccc(C(F)(F)F)cc1F", "testResult": "< 4.30"}

Ask | Can you look up the measured pIC50 of COc1cc(-c2nn(C3CCN(C4CCOCC4)CC3)c3ncnc(N)c23)ccc1NC(=O)c1cccc(O)c1 for me?
Reply | < 4.30

Ask | Can you look up the measured pIC50 of COc1cc(-c2nn(C3CCN(C4CCOCC4)CC3)c3ncnc(N)c23)ccc1NC(=O)c1ccc(C(F)(F)F)cc1F for me?
Reply | < 4.30

Ask | Can you look up the measured pIC50 of COc1cc(-c2nn(C3CCN(C4CCOCC4)CC3)c3ncnc(N)c23)ccc1NC(=O)c1ccc(C)cc1 for me?
Reply | < 4.30

###

# Test system: Rattus norvegicus
# test: Plasma concentration in rat at 10 mg/kg/day
# Assay type: ADME, organism-based
# testParameters: in vivo
measuredMetric: concentration (nM)
Form entry: value (nM) — number only.

Ask | Can you look up the measured concentration of COc1cc(-c2nn([C@H]3CC[C@H](N4CCN(C(C)=O)CC4)CC3)c3ncnc(N)c23)ccc1NC(=O)c1cc2ccccc2n1C for me?
Reply | 2900

###

# Test system: Rattus norvegicus
# test: Plasma concentration in rat at 5 mg/kg/day
# Assay type: ADME, organism-based
# testParameters: in vivo
measuredMetric: concentration (µM)
Form entry: value (µM) — number only.

Ask | Can you look up the measured concentration of COc1cc(-c2nn([C@H]3CC[C@H](N4CCN(C(C)=O)CC4)CC3)c3ncnc(N)c23)ccc1NC(=O)c1cc2ccccc2n1C for me?
Reply | 1.06
